Test system: HL-60
assay explanation: cell viability (% survival relative to DMSO control, bortezomib = 0%); higher = less cytotoxic
measurement conditions: 10 nM; 72 h
reported metric: cell viability (%)

[
  {
    "compound": "CCCCCCCCCCCC(=O)c1c(O)c(C(=O)CCCCCCCCCCC)c(O)c(C2CC(c3ccc(O)cc3)Oc3cc(O)ccc32)c1O (centres undefined)",
    "reported metric": "cell viability",
    "quantitative result": 119
  },
  {
    "compound": "C[C@](N)(Cc1ccc(O)cc1)C(=O)O [Metirosine]",
    "reported metric": "cell viability",
    "quantitative result": 93.7
  },
  {
    "compound": "CCOP(=O)(OCC)C(=Cc1cc(C(C)(C)C)c(O)c(C(C)(C)C)c1)P(=O)(OCC)OCC",
    "reported metric": "cell viability",
    "quantitative result": 94.9
  },
  {
    "compound": "Cc1coc2c1C(=O)C(=O)c1c-2ccc2c1CCCC2(C)C [Tanshinone IIA]",
    "reported metric": "cell viability",
    "quantitative result": 96.6
  }
]

====

Tested on: HL-60
assay explanation: cell viability (% survival relative to DMSO control); higher = less cytotoxic
measurement conditions: 1 µM; 72 h; co-treatment: pictilisib 100 nM

[
  {
    "compound": "O=C(O)C1=CC(=C(c2ccc(O)c(C(=O)O)c2)c2ccc(O)c(C(=O)O)c2)C=CC1=O [Aurintricarboxylic acid]",
    "experimental system": "HL-60",
    "cell viability / %": 101
  },
  {
    "compound": "Cc1cn([C@H]2C[C@H](O)[C@@H](COP(=O)(O)OP(=O)(O)O)O2)c(=O)[nH]c1=O [Thymidine diphosphate]",
    "experimental system": "HL-60",
    "cell viability / %": 111
  },
  {
    "compound": "Nc1ccccc1C(=O)C[C@H](N)C(=O)O [L-Kynurenine]",
    "experimental system": "HL-60",
    "cell viability / %": 94.5
  },
  {
    "compound": "CCCCCCCCCCC[C@@H](C[C@@H]1OC(=O)[C@H]1CCCCCC)OC(=O)[C@H](CC(C)C)NC=O [Orlistat]",
    "experimental system": "HL-60",
    "cell viability / %": 94.4
  },
  {
    "compound": "CCOP(=O)(OCC)C(=Cc1cc(C(C)(C)C)c(O)c(C(C)(C)C)c1)P(=O)(OCC)OCC",
    "experimental system": "HL-60",
    "cell viability / %": 94.9
  },
  {
    "compound": "CC(C)(O)CNc1nc(Nc2ccnc(C(F)(F)F)c2)nc(-c2cccc(C(F)(F)F)n2)n1 [AG-221]",
    "experimental system": "HL-60",
    "cell viability / %": 94.9
  },
  {
    "compound": "COc1ccc(S(=O)(=O)N2CCN(S(=O)(=O)c3ccc4c(c3)OCCO4)CC2)cc1 [BML283]",
    "experimental system": "HL-60",
    "cell viability / %": 90.1
  },
  {
    "compound": "CCCCN1C[C@H](O)[C@@H](O)[C@H](O)[C@H]1CO [Miglustat]",
    "experimental system": "HL-60",
    "cell viability / %": 107
  }
]

====

Test system: myeloid leukemia patient primary cells Pat.2
assay explanation: cell viability (% survival relative to DMSO control); higher = less cytotoxic
measurement conditions: 1 nM; 72 h
reported metric: cell viability (%)

[
  {
    "compound": "C[C@H](NC(=O)c1sccc1OCc1ccc(Cl)cc1)c1ccccc1",
    "reported relation": ">",
    "quantitative result": 100
  },
  {
    "compound": "O=C(O)C1=CC(=C(c2ccc(O)c(C(=O)O)c2)c2ccc(O)c(C(=O)O)c2)C=CC1=O [Aurintricarboxylic acid]",
    "reported relation": "=",
    "quantitative result": 98
  },
  {
    "compound": "O=C1c2cc([N+](=O)[O-])ccc2-n2c1nc1ccccc1c2=O [GNF-Pf-3777]",
    "reported relation": "=",
    "quantitative result": 98.3
  },
  {
    "compound": "N#CC(C#N)=NNc1ccc(OC(F)(F)F)cc1 [FCCP]",
    "reported relation": "=",
    "quantitative result": 92.5
  },
  {
    "compound": "O=C(C1CC1)N1CC[C@@H](C=C2NNC(=O)N2c2ccc(-c3ccc4occc4c3)cc2)C1",
    "reported relation": ">",
    "quantitative result": 100
  },
  {
    "compound": "CN(C)C(=O)n1nnnc1Cc1ccc(-c2ccccc2)cc1",
    "reported relation": "=",
    "quantitative result": 97.7
  },
  {
    "compound": "Cc1c(-c2ccc(-c3ccccc3F)cc2)nc2ccc(F)cc2c1C(=O)O [Brequinar]",
    "reported relation": ">",
    "quantitative result": 100
  }
]

====

Tested on: myeloid leukemia patient primary cells Pat.13
assay explanation: cell viability (% survival relative to DMSO control); higher = less cytotoxic
measurement conditions: 100 nM; 72 h
cell viability strictly less than 90% = Y. Otherwise N.

[
  {
    "chemical smiles": "CCC(=O)N1CCN(c2ccc(-n3c(=O)ccc4cnc5ccc(-c6cnc7ccccc7c6)cc5c43)cc2C(F)(F)F)CC1",
    "experimental system": "myeloid leukemia patient primary cells Pat.13",
    "category label": "Y"
  },
  {
    "chemical smiles": "COC(=O)[C@]12CCC(C)(C)C[C@H]1[C@H]1C(=O)C=C3[C@@]4(C)C=C(C#N)C(=O)C(C)(C)[C@@H]4CC[C@@]3(C)[C@]1(C)CC2",
    "experimental system": "myeloid leukemia patient primary cells Pat.13",
    "category label": "Y"
  },
  {
    "chemical smiles": "O=C(O)C1=CC(=C(c2ccc(O)c(C(=O)O)c2)c2ccc(O)c(C(=O)O)c2)C=CC1=O",
    "experimental system": "myeloid leukemia patient primary cells Pat.13",
    "category label": "N"
  },
  {
    "chemical smiles": "Nc1nc(Cl)nc2c1ncn2[C@H]1C[C@H](O)[C@@H](CO)O1",
    "experimental system": "myeloid leukemia patient primary cells Pat.13",
    "category label": "Y"
  },
  {
    "chemical smiles": "COc1cc(/C=C/C(=O)N2CCC=CC2=O)cc(OC)c1OC",
    "experimental system": "myeloid leukemia patient primary cells Pat.13",
    "category label": "Y"
  },
  {
    "chemical smiles": "O=C1c2cc([N+](=O)[O-])ccc2-n2c1nc1ccccc1c2=O",
    "experimental system": "myeloid leukemia patient primary cells Pat.13",
    "category label": "N"
  }
]

====

Tested on: K-562
assay explanation: cell viability (% survival relative to DMSO control, bortezomib = 0%); higher = less cytotoxic
measurement conditions: 1000 nM; 72 h
cell viability strictly less than 90% = TRUE. Otherwise FALSE.

[
  {
    "compound": "Nc1ccccc1C(=O)C[C@H](N)C(=O)O [L-Kynurenine]",
    "category label": "FALSE"
  },
  {
    "compound": "O=C1O[C@H]([C@@H](O)CO)C(O)=C1O [Vitamin C (ascorbate)]",
    "category label": "FALSE"
  },
  {
    "compound": "COc1ccc(C(=O)Nc2c(Cl)cncc2Cl)cc1OC1CCCC1 [Piclamilast]",
    "category label": "FALSE"
  },
  {
    "compound": "Cc1cn([C@H]2C[C@H](O)[C@@H](COP(=O)(O)OP(=O)(O)O)O2)c(=O)[nH]c1=O [Thymidine diphosphate]",
    "category label": "FALSE"
  },
  {
    "compound": "C=C(C)[C@H]1Cc2c(ccc3c2O[C@@H]2COc4cc(OC)c(OC)cc4[C@@H]2C3=O)O1 [Rotenone]",
    "category label": "TRUE"
  },
  {
    "compound": "CCCCC/C=C\\C/C=C\\C/C=C\\C/C=C\\CCCCN1C(=O)C=CC1=O [N-Arachidonylmaleimide]",
    "category label": "FALSE"
  },
  {
    "compound": "CN(C)C(=O)[C@H](O)[C@H](Cc1ccccc1)NC(=O)c1cc2cc(Cl)ccc2[nH]1",
    "category label": "FALSE"
  },
  {
    "compound": "O=C(O)C(=O)CBr [3-bromopyruvic acid]",
    "category label": "FALSE"
  },
  {
    "compound": "CCCCCCCCCCCC(=O)c1c(O)c(C(=O)CCCCCCCCCCC)c(O)c(C2CC(c3ccc(O)cc3)Oc3cc(O)ccc32)c1O (stereo unspecified)",
    "category label": "FALSE"
  },
  {
    "compound": "CCC(=O)N1CCN(c2ccc(-n3c(=O)ccc4cnc5ccc(-c6cnc7ccccc7c6)cc5c43)cc2C(F)(F)F)CC1 [Torin1]",
    "category label": "TRUE"
  },
  {
    "compound": "COC(=O)[C@]12CCC(C)(C)C[C@H]1[C@H]1C(=O)C=C3[C@@]4(C)C=C(C#N)C(=O)C(C)(C)[C@@H]4CC[C@@]3(C)[C@]1(C)CC2 [Bardoxolone methyl]",
    "category label": "FALSE"
  },
  {
    "compound": "Nc1nc(Cl)nc2c1ncn2[C@H]1C[C@H](O)[C@@H](CO)O1 [Cladribine]",
    "category label": "TRUE"
  }
]
